Exercise: for every item that follows, state its recorded Kd.
target: GST-LEDGF PWWP (UniProt O75475 1-100); assay: EMSA
Sequence (O75475 1-100): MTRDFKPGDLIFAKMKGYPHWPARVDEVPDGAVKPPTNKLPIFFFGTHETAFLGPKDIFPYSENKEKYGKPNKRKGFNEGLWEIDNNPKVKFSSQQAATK

Hello, please tell me recorded Kd for this one: SMYD1 DNA 40 bp (dsDNA) DNA 1: CAGGCTGGTCTTGAACTCCTGACCTCAGATGATCCATGTG DNA 2: CACATGGATCATCTGAGGTCAGGAGTTCAAGACCAGCCTG
~1.5 µM

Hello, please tell me recorded Kd for this one: non-specific DNA 40 bp (dsDNA) DNA 1: CTGCAGAAGCTTGGTGCCGGGGCCGCTCAATTGGTCGTAG DNA 2: CTACGACCAATTGAGCGGCCCCGGCACCAAGCTTCTGCAG
~1.5 µM

All values here come from paper PMC3616739.
